experimentNotes: Metabolic stability in human liver microsome assessed as half life in presence of NADPH incubated upto 60 mins by LC-MS/MS analysis
Type: ADME
measurementContext: liver microsomes
Listed here are compounds together with their documented half-life.
reportedProperty: half-life

# compound, reportedProperty, measured
records = [
    ("O=C(c1ccc(F)cc1)C1CCN(CCn2c(=O)[nH]c3ccccc3c2=O)CC1 [KETANSERIN]", "half-life", "0.56 h"),
    ("NC(=O)c1cccc2[nH]c(NC(=O)c3cccc(C(=O)N4CCC(Nc5ncc(I)cn5)CC4)c3)nc12", "half-life", "3.51 h"),
]

----------
System: MDA-MB-468
experimentNotes: Antiproliferative activity against human MDA-MB-468 cells assessed as inhibition of cell growth incubated for 24 hrs by MTT assay
Type: functional, cell-based
measurementContext: MDA-MB-468, 24 h
reportedProperty: IC50

# molecularString, reportedProperty, measured
measured = [
    ("NC(=O)c1cccc2[nH]c(NC(=O)c3ccc(C(=O)N4CCC(Nc5ncc(I)cn5)CC4)cc3)nc12", "IC50", "18.5 µM"),
    ("NC(=O)c1cccc2[nH]c(NC(=O)c3ccc(C(=O)N4CCN(c5ncc(Br)cn5)CC4)cc3)nc12", "IC50", "25.1 µM"),
    ("NC(=O)c1cccc2[nH]c(NC(=O)c3ccc(C(=O)N4CCN(c5ccc(C(F)(F)F)cn5)CC4)cc3)nc12", "IC50", "27.3 µM"),
    ("NC(=O)c1cccc2[nH]c(NC(=O)c3ccc(CN4CCC(Nc5ncc(I)cn5)CC4)cc3)nc12", "IC50", "27.7 µM"),
    ("N#Cc1ccc(NC2CCN(C(=O)c3ccc(C(=O)Nc4nc5c(C(N)=O)cccc5[nH]4)cc3)CC2)nc1", "IC50", "> 30 µM"),
    ("NC(=O)c1cccc2[nH]c(NC(=O)c3cccc(C(=O)N4CCC(Nc5ncc(C(F)(F)F)cn5)CC4)c3)nc12", "IC50", "10.5 µM"),
    ("NC(=O)c1cccc2[nH]c(NC(=O)c3cccc(C(=O)N4CCC(Nc5ncc(Br)cn5)CC4)c3)nc12", "IC50", "12.4 µM"),
    ("NC(=O)c1cccc2[nH]c(NC(=O)c3ccc(C(=O)N4CCC(Nc5ncc(F)cn5)CC4)cc3)nc12", "IC50", "26.4 µM"),
]
